B1: CPEB3 Ribozyme (parent)
chain: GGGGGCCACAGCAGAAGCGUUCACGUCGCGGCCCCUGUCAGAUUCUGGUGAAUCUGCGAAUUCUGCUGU

# Variants of: B1
# Assay Procedure: self-cleavage, relative activity (ratio to wild type); higher = more cleavage; co-transcriptional
Use self-cleavage to assign classes; range list: band A = under 0.2, band B = from 0.2 up to 0.8, band C = 0.8 and over

Would you please look over these solved cases?
>>> classification("C24A A40U")
"band B"
>>> classification("C54A U67C")
"band C"
>>> classification("A23C U36A")
"band B"

# input Consider G47U A52G . To which self-cleavage class does it belong?
# output band C

# input Note: place this variant into its band. Item: C24A G37U
# output band B

# input Returns: class label. Input: G5U C35A
# output band A
